# System: Achromobacter xylosoxidans
# assay-explanation: Activity of Achromobacter xylosoxidans CIP69598 beta-lactamase OXA-114a expressed in Escherichia coli TOP10 assessed as compound hydrolysis
parameter-measured: kcat (s⁻¹)
Note: unit s⁻¹ is implicit; provide only the numeric part.

// query Entry CCN1CCN(C(=O)N[C@@H](C(=O)N[C@@H]2C(=O)N3[C@@H]2SC(C)(C)[C@@H]3C(=O)O)c2ccccc2)C(=O)C1=O [PIPERACILLIN] has what kcat?
// result 0.5

// query Entry CC(=O)OCC1=C(C(=O)O)N2C(=O)[C@@H](NC(=O)Cc3cccs3)[C@H]2SC1 [CEPHALOTHIN] has what kcat?
// result 0.5

// query Entry CC1(C)S[C@@H]2[C@H](NC(=O)[C@H](C(=O)O)c3ccsc3)C(=O)N2[C@H]1C(=O)O [TICARCILLIN] has what kcat?
// result 0.1

// query Entry CC1(C)S[C@@H]2[C@H](NC(=O)Cc3ccccc3)C(=O)N2[C@H]1C(=O)O has what kcat?
// result 0.1
